- procedure_details: The drug is tested on the gut metagenome community of MV26 with ENA study accession number: PRJEB31790 and ENA sample accession number: SAMEA5537507 for biotransformation. The drug concentrations were measured over 9 timepoints collected between 0 and 24 hours of incubation by liquid-chromatography-coupled mass spectrometry (LC–MS)
- Type: ADME
- Set-up: dose 2 uM, timepoint 0, 1, 2, 4, 6, 8, 12, 18, 24 hours
- condition_details: 2 µM

compound	Bacterial Biotransformation
CC(=O)OCC(CCn1cnc2cnc(N)nc21)COC(C)=O	Compound metabolized
C#C[C@]1(OC(C)=O)CC[C@H]2[C@@H]3CCC4=CC(=O)CC[C@@H]4[C@H]3CC[C@@]21C [NORETHINDRONE ACETATE]	Compound metabolized
C[C@@H]1C[C@H]2[C@@H]3CCC4=CC(=O)C=C[C@]4(C)[C@@]3(F)[C@@H](O)C[C@]2(C)[C@@]1(O)C(=O)CO	Compound NOT metabolized
COc1ccc([C@@H]2Sc3ccccc3N(CCN(C)C)C(=O)[C@@H]2OC(C)=O)cc1	Compound NOT metabolized
